Values compiled from patent US20250177363A1.

# assayTarget: human TLR7 (Homo sapiens, UniProt Q9NYK1)
# procedureSummary: TLR7 inhibition reporter assay (HEK-Blue, SEAP)
# recordedConditions: HEK-Blue cells overexpressing human TLR7, ligand gardiquimod 2.5 μM, 22 hour incubation
measure: IC50 (µM)
Provide only the numeric value, understood in µM.

Fill in: human TLR7 (Homo sapiens, UniProt Q9NYK1) IC50 for Cc1cc(-c2ccc(CN3CC4(C3)CN(C3CCC3)C4)cc2)nc2c1nc(-c1ccc(S(C)(=O)=O)cc1)n2C1CC1 [Example 1] = 8.1

Measured on human TLR7 (Homo sapiens, UniProt Q9NYK1), CC(C)N1CCN(c2ccc(-c3cnc4nc(-c5ccc(S(C)(=O)=O)cc5)n(C)c4c3)cc2)CC1 [Example 49] has a documented IC50 of 4.2

Record Cc1cc(C2CCN(C3CCN(CC4CC4)CC3)CC2)nc2c1nc(-c1ccc(S(C)(=O)=O)cc1)n2C [Example 23] / human TLR7 (Homo sapiens, UniProt Q9NYK1), IC50 recorded as 1.9

Lab entry: human TLR7 (Homo sapiens, UniProt Q9NYK1) assay, compound Cc1cc(C2CCN(C3CCN(C4CCC4)CC3)CC2)nc2c1nc(-c1ccc(S(C)(=O)=O)cc1)n2C [Example 24] , IC50 = 5.4

IC50 on human TLR7 (Homo sapiens, UniProt Q9NYK1) for Cc1cc(-c2ccc(C3CCN(C)CC3)cc2)nc2c1nc(-c1ccc(S(C)(=O)=O)cc1)n2C1CC1 [Example 9] is 13

* * *

Consider the following compounds; for each one, report its pIC50.
# assayTarget: human TLR7 (Homo sapiens)
# Construct: host or cells: HEK-Blue cells
# Sequence (Q9NYK1 27-1049): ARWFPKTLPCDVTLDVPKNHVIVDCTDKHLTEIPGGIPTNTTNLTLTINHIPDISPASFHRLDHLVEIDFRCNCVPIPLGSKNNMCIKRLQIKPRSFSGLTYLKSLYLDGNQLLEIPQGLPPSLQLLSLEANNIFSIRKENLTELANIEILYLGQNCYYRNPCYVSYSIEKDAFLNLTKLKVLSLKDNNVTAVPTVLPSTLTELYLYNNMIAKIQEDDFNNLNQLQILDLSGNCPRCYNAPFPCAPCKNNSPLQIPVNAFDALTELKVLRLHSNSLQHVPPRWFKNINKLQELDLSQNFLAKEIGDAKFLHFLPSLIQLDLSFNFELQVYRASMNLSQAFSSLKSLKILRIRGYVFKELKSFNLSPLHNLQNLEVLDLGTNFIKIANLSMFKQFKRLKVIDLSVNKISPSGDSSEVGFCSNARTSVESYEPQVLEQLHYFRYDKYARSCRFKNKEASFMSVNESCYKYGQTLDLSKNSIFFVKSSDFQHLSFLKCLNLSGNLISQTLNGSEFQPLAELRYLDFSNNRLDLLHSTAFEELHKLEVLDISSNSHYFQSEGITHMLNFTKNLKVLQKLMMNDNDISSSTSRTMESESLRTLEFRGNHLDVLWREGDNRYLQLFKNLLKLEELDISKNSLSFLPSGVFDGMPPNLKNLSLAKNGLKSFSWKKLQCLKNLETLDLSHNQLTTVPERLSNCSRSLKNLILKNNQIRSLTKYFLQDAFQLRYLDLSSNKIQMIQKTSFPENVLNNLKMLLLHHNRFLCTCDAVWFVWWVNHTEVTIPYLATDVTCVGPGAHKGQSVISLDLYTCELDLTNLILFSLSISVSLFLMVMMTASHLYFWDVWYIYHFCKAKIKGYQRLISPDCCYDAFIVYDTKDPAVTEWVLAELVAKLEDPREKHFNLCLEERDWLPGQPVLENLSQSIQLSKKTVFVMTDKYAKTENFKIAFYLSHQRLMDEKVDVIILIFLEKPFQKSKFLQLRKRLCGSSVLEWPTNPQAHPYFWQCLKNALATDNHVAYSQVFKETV
# procedureSummary: TLR7 inhibition reporter assay (HEK-Blue, SEAP)
# Type: cell-based
# recordedConditions: HEK-Blue cells overexpressing human TLR7, ligand gardiquimod 2.5 μM, 22 hour incubation
Quick note: pIC50 values are minus log10 of concentrations in mol/L.

// Cc1cc(C2CCN(C3CC4CCC(C3)N4CC(C)C)CC2)nc2c1nc(-c1ccc(S(C)(=O)=O)cc1)n2C (single isomer, unassigned) : pIC50 value = 5.85

compound Cc1cc(C2CCN(C3CC4CCC(C3)N4C3CCC3)CC2)nc2c1nc(-c1ccc(S(C)(=O)=O)cc1)n2C (centres unmarked) [Example 33] , pIC50 observed: 5.82

The measured pIC50 associated with `CC(C)CN1CCC(N2CCC(c3ccc4nc(-c5ccc(S(C)(=O)=O)cc5)n(C)c4n3)CC2)CC1` reads 5.55

For `CC(C)CN1CC2(CCN(c3ccc(-c4ccc5nc(-c6ccc(S(C)(=O)=O)cc6)n(C)c5n4)cc3)CC2)C1` the compound record lists pIC50 as 4.82
